Target: FYN (Homo sapiens, UniProt P06241)
Sequence (P06241 whole entry): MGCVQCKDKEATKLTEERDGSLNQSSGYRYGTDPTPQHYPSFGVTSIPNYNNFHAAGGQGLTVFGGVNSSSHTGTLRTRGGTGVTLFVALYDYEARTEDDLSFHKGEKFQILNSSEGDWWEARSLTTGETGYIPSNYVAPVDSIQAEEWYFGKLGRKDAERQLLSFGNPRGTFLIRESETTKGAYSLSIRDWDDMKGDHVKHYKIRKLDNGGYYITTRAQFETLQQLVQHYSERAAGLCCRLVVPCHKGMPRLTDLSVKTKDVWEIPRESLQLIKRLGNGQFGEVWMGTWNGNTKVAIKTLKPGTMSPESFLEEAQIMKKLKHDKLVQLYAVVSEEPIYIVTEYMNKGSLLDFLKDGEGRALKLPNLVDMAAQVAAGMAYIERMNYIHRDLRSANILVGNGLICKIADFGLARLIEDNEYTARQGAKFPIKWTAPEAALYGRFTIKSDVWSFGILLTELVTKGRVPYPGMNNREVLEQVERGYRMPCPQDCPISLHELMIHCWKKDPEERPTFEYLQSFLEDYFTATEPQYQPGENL
Experiment: In vitro selectivity assay
Format: biochemical
Conditions: selectivity panel
Experimental: The inhibitory effects of compound MPH-5 on a panel of 68 kinases and other histone deacetylases were evaluated to assess the selectivity profile of MPH-5. This experiment was conducted by ICE Bioscience Inc. (Beijing, China).
experimental_endpoint: IC50

I'd like to know its IC50. The molecule in question is Cn1cc(-c2cc3cnc(Nc4ccc(-c5cncn5/C=C/C(=O)NO)cc4Cl)cc3n2C(=O)OC(C)(C)C)cn1
> 10 µM

----------
molecular target: JAK3 (Homo sapiens); construct: ICE Bioscience Inc. (contract assay provider); experiment: In vitro selectivity assay; type: biochemical; conditions: selectivity panel
Sequence (P52333 whole entry): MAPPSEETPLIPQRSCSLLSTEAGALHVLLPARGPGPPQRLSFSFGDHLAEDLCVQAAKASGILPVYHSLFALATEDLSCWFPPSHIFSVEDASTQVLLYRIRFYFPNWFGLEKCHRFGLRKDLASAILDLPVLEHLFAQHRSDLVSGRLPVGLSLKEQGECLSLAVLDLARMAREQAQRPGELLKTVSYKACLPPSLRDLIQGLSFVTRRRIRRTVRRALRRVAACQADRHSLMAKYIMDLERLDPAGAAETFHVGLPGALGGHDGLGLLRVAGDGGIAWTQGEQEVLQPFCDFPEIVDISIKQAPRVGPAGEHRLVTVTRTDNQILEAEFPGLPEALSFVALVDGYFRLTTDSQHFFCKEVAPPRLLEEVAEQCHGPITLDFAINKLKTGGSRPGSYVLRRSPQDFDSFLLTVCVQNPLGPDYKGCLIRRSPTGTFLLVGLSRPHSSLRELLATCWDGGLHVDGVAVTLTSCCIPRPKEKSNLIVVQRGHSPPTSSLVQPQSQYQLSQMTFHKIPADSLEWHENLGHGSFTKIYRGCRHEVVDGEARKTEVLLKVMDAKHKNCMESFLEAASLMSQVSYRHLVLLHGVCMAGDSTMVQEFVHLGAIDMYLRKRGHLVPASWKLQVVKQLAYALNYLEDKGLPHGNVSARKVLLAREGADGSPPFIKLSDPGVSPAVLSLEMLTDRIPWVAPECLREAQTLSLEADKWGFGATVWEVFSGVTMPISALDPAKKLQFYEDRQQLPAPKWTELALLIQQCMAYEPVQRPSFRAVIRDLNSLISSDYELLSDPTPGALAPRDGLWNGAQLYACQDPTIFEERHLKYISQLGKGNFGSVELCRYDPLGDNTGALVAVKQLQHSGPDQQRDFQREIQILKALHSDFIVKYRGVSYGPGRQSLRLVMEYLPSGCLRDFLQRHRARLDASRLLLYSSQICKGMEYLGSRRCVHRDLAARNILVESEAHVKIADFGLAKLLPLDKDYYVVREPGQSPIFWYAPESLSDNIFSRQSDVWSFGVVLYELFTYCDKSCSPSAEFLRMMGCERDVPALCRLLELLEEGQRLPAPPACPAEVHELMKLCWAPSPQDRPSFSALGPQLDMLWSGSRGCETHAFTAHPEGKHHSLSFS
experimental_endpoint: IC50

// fetch JAK3 (Homo sapiens) IC50 for Cn1cc(-c2cc3cnc(Nc4ccc(-c5cncn5/C=C/C(=O)NO)cc4Cl)cc3n2C(=O)OC(C)(C)C)cn1 [MPH-5]
> 10 µM

----------
Molecular target: EPHA4 (Homo sapiens, UniProt P54764)
Construct: ICE Bioscience Inc. (assay service)
Sequence (P54764 20-986): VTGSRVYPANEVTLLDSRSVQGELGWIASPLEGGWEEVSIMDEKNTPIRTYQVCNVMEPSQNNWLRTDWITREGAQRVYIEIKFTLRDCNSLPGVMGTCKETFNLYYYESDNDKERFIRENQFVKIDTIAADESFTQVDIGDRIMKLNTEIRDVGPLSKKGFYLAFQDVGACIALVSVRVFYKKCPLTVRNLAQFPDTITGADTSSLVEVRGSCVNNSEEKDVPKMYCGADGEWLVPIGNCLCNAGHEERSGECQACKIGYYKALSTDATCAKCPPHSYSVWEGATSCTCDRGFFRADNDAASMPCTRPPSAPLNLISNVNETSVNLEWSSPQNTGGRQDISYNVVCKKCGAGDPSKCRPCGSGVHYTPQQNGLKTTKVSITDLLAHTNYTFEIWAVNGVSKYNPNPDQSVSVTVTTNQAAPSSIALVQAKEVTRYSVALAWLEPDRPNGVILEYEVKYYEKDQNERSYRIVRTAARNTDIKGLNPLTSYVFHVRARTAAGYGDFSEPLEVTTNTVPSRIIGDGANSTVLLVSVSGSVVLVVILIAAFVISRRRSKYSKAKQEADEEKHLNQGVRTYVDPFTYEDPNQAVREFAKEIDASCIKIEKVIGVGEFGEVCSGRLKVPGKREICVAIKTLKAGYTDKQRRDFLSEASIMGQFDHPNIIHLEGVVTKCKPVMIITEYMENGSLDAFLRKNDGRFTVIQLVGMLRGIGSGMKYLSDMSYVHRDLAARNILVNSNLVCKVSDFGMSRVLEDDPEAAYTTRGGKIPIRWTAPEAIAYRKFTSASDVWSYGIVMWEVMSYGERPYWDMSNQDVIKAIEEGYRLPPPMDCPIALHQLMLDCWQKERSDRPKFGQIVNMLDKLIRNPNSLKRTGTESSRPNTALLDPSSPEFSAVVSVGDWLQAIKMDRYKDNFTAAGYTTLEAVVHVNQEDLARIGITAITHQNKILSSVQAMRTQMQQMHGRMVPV
Assay: In vitro selectivity assay
Type: biochemical
Settings: selectivity panel
Description: The inhibitory effects of compound MPH-5 on a panel of 68 kinases and other histone deacetylases were evaluated to assess the selectivity profile of MPH-5. This experiment was conducted by ICE Bioscience Inc. (Beijing, China).
experimental_endpoint: IC50

Item under review: Cn1cc(-c2cc3cnc(Nc4ccc(-c5cncn5/C=C/C(=O)NO)cc4Cl)cc3n2C(=O)OC(C)(C)C)cn1 [MPH-5] . Reported IC50?
> 10 µM

----------
Biological target: EPHA3 (Homo sapiens)
Construct: ICE Bioscience Inc. (assay service)
Sequence (P29320 21-983): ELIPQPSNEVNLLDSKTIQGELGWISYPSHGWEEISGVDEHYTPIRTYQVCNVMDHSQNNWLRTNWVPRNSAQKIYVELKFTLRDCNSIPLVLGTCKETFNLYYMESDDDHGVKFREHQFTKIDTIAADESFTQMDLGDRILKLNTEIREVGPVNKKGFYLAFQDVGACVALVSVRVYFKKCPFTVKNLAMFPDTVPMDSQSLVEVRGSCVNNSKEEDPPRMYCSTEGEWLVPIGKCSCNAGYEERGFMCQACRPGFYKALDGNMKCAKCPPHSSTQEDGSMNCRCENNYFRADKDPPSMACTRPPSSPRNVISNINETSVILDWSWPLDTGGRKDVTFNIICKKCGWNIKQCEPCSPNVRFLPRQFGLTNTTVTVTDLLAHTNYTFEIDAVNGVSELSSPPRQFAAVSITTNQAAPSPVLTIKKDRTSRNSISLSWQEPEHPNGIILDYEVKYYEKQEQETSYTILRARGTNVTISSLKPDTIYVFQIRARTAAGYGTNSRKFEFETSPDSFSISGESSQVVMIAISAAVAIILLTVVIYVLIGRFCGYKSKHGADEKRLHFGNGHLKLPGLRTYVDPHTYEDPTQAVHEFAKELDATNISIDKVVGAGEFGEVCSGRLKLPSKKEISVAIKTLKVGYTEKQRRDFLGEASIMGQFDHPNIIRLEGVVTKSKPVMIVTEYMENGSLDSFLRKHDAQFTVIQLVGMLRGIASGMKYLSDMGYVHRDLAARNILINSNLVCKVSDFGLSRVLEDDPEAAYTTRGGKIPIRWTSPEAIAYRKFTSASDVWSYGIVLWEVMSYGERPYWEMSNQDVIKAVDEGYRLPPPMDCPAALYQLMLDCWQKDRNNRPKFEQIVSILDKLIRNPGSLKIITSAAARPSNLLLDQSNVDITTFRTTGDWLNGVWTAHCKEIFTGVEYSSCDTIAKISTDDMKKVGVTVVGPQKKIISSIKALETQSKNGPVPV
Assay: In vitro selectivity assay
Assay type: biochemical
Settings: selectivity panel
Description: The inhibitory effects of compound MPH-5 on a panel of 68 kinases and other histone deacetylases were evaluated to assess the selectivity profile of MPH-5. This experiment was conducted by ICE Bioscience Inc. (Beijing, China).
experimental_endpoint: IC50

Reported IC50 for Cn1cc(-c2cc3cnc(Nc4ccc(-c5cncn5/C=C/C(=O)NO)cc4Cl)cc3n2C(=O)OC(C)(C)C)cn1 : what is it?
> 10 µM

----------
Target: HDAC2 (Homo sapiens, UniProt Q92769)
Construct: ICE Bioscience Inc. (contract assay provider)
Assay: In vitro selectivity assay
Assay type: biochemical
Details: selectivity panel
Protocol: The inhibitory effects of compound MPH-5 on a panel of 68 kinases and other histone deacetylases were evaluated to assess the selectivity profile of MPH-5. This experiment was conducted by ICE Bioscience Inc. (Beijing, China).
experimental_endpoint: IC50

Which IC50 is listed for Cn1cc(-c2cc3cnc(Nc4ccc(-c5cncn5/C=C/C(=O)NO)cc4Cl)cc3n2C(=O)OC(C)(C)C)cn1 ?
> 10 µM

----------
molecular target: ERBB4 (Homo sapiens, UniProt Q15303); assay: In vitro selectivity assay; assay type: biochemical; settings: selectivity panel
Sequence (Q15303 26-1308): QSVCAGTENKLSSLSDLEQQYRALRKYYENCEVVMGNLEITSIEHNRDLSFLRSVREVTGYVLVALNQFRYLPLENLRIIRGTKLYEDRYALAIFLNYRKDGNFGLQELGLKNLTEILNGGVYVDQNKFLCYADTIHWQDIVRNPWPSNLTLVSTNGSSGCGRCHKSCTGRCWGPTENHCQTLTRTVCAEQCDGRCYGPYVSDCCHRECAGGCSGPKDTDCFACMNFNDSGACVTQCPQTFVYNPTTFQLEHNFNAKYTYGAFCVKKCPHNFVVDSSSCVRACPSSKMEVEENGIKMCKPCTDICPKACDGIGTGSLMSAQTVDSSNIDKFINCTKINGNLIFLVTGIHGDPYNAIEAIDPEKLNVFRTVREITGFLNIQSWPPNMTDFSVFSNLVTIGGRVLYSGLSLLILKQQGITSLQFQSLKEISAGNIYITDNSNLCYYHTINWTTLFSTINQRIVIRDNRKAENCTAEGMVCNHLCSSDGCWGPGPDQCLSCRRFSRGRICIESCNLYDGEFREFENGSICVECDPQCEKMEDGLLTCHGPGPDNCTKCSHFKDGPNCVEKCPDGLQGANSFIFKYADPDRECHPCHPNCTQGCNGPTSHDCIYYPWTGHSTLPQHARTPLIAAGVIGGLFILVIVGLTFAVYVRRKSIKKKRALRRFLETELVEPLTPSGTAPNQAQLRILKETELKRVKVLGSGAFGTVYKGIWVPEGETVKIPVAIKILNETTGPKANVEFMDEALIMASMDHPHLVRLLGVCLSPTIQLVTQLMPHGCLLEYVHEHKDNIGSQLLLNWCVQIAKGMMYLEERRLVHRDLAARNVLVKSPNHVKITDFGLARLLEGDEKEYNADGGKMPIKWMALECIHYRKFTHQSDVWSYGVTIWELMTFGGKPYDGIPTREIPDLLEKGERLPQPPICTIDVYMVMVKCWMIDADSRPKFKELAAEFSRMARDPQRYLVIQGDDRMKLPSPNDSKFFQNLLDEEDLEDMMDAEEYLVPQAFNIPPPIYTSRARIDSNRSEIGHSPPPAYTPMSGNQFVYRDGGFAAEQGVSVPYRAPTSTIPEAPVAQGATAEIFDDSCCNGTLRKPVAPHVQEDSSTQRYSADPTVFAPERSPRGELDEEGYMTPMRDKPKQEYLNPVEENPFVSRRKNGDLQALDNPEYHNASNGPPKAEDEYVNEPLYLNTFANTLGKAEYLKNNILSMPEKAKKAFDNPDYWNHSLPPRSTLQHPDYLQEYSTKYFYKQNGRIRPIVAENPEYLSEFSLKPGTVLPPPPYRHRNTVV
experimental_endpoint: IC50

For the compound Cn1cc(-c2cc3cnc(Nc4ccc(-c5cncn5/C=C/C(=O)NO)cc4Cl)cc3n2C(=O)OC(C)(C)C)cn1 , what IC50 is on record?
> 10 µM

----------
Biological target: HDAC7 (Homo sapiens, UniProt Q8WUI4)
Construct: ICE Bioscience Inc. (Beijing, China), the contract lab that ran the assay
Experiment: In vitro selectivity assay
Type: biochemical
Conditions: selectivity panel
Protocol: The inhibitory effects of compound MPH-5 on a panel of 68 kinases and other histone deacetylases were evaluated to assess the selectivity profile of MPH-5. This experiment was conducted by ICE Bioscience Inc. (Beijing, China).
experimental_endpoint: IC50

Query: IC50; subject: Cn1cc(-c2cc3cnc(Nc4ccc(-c5cncn5/C=C/C(=O)NO)cc4Cl)cc3n2C(=O)OC(C)(C)C)cn1 [MPH-5]
> 10 µM
